target: Human IGF-1R (HIGF-1R), purified from BHK cells stably transfected with IGF-1R cDNA (human, UniProt P08069 31-1367); assay: cell-based or functional assay
Sequence (P08069 31-1367 limits assumed): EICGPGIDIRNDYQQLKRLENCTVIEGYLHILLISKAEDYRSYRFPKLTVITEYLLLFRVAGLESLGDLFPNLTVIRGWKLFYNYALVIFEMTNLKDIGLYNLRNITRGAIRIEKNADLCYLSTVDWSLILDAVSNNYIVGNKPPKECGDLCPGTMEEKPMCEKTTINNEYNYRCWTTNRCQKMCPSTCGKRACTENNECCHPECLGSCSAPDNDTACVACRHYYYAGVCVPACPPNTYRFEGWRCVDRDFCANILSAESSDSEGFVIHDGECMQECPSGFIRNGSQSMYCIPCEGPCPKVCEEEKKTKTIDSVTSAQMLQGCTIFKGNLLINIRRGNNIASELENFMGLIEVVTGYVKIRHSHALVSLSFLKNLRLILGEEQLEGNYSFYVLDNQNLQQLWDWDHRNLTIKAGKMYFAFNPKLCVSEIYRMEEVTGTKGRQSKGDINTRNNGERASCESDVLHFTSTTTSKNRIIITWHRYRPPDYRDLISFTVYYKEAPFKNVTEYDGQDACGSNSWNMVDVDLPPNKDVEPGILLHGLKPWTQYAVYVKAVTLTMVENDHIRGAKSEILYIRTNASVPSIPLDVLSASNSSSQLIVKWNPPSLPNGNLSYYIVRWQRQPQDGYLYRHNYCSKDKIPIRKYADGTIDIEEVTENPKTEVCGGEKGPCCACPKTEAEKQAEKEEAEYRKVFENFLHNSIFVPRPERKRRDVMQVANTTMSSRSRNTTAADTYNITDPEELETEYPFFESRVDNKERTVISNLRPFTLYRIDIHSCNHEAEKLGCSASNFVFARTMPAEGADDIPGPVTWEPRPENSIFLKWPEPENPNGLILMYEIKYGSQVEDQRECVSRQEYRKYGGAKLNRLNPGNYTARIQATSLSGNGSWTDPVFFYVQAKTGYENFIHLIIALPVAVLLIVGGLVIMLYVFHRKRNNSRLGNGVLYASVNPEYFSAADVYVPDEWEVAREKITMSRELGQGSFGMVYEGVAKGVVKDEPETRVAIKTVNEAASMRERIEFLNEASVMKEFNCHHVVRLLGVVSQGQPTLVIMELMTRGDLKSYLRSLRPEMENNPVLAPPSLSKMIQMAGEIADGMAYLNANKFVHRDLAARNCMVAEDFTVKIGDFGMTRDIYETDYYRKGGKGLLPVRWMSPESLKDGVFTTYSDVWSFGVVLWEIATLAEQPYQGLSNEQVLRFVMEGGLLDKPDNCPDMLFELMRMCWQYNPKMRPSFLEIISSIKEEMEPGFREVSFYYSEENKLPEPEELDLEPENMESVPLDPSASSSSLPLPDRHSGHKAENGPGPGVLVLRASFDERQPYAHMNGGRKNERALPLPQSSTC
# maps each entry to its IC50 in kinase assay (M), IGF-1R kinase activation by 10 nM IGF-1
Note: unit M is implicit; provide only the numeric part.

Reference set (3 entries):
In [3]: df
Out[3]:
                               binder  value_observed
0       EFGRGYGGDGGGYWSGYEWLAE [F207]           2e-07
1  EVDRDCQARPCGDAANFYDWFGQQGTE [F269]           8e-07
2  EDWLRCLGVILSGGLTELANTGCVQGE [F167]           1e-06

Attention now shifts to the item below.
*Q* Requested field: IC50 in kinase assay (M), IGF-1R kinase activation by 10 nM IGF-1. Item: SFYSCLESLVQGPAEKSRGQWEGCRK [F293]
*A* 1e-07
